# inhibition annotations
- Protocol Details: A qHTS for Small Molecule Inhibitors of Shiga Toxin; note: 0% is about no effect
- Test Settings: Vero cells, Shiga toxin protein synthesis inhibition reporter; at 38.7 µM, stronger effect = higher value
The whole screen tested about 290,000 compounds, of which about 27,000 (9.3%) were called active. This excerpt belongs to a sample that is enriched for actives.
Metric: inhibition (%)

>>> value_reported("CNC(=O)CN1C(=O)NC(c2ccccc2)(c2ccccc2)C1=O")
-7.36
>>> value_reported("O=S(=O)(NCC1CN(S(=O)(=O)c2ccc3c(c2)OCCO3)C1)c1c(F)cccc1F")
-12.4
>>> value_reported("COc1cccc(C(=O)NNC(=O)/C=C/c2ccccc2)c1")
-15.7
>>> value_reported("O=C(c1ccc(Cl)c(S(=O)(=O)N2CCCCC2)c1)N1CCCCCC1")
-21.7
>>> value_reported("COc1ccccc1N1CCN(S(=O)(=O)c2ccc3c(c2)NC(=O)CS3)CC1")
16.6
>>> value_reported("COc1ccc(Cl)cc1NS(=O)(=O)c1cccc(C(=O)NCC2CCCO2)c1 (stereo not given)")
-3.5
>>> value_reported("O=C(NCc1ccco1)/C(=C\\c1cccc([N+](=O)[O-])c1)NC(=O)c1ccco1")
2.57
>>> value_reported("CC(C)c1ccc(C(=O)OC2CCOC2=O)cc1 (stereo not given)")
-21.8
>>> value_reported("CC(Sc1cccc[n+]1[O-])C(=O)Nc1cccc(S(=O)(=O)N2CCOCC2)c1 (stereo not given)")
-6.74
>>> value_reported("Cc1nn(Cc2ccccc2)c(Cl)c1C(=O)OC1CCOC1=O (stereo not given)")
-17.1
